targetUnderTest: Adrenergic β2 (H292 cells) (Homo sapiens, UniProt P07550)
Construct: endogenous in cells; host or cells: H292 cells
Sequence (P07550 whole entry): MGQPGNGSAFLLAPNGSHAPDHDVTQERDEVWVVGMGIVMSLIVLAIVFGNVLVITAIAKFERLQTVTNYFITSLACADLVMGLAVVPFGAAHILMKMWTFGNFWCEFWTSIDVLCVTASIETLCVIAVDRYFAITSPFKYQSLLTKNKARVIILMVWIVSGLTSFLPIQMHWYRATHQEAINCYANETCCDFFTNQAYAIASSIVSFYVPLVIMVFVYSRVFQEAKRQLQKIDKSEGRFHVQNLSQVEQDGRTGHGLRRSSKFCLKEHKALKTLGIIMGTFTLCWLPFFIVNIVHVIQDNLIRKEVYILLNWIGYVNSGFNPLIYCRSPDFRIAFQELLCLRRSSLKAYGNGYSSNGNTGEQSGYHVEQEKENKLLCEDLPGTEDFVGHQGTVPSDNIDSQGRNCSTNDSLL
assaySummary: Assay for Adrenergic β2 Mediated cAMP Production (concentration response, AlphaScreen cAMP detection)
Type: cell-based
conditionInfo: fraction relative to the maximum activity determined for formoterol
readoutType: β2 Intrinsic activity

Some solved cases for reference:
>  <compound>
Cc1nc(C(=O)N2CCOC3(CCN(CCc4ccc(CCNC[C@H](O)c5ccc(O)c6[nH]c(=O)sc56)cc4)CC3)C2)cs1 [Example 5, ditrifluoroacetate]

>  <targetUnderTest>
Adrenergic β2 (H292 cells) (Homo sapiens, UniProt P07550)

>  <β2 Intrinsic activity>
0.9

$$$$
>  <compound>
CC(C)c1ccc(C(=O)N2CCOC3(CCN(Cc4cccc(CCNC[C@H](O)c5ccc(O)c6[nH]c(=O)sc56)c4F)CC3)C2)s1 [Example 73, ditrifluoroacetate]

>  <targetUnderTest>
Adrenergic β2 (H292 cells) (Homo sapiens, UniProt P07550)

>  <β2 Intrinsic activity>
0.9

$$$$
>  <compound>
CC(C)c1nc(C(=O)N2CCOC3(CCN(Cc4cccc(C(F)CNC[C@H](O)c5ccc(O)c6[nH]c(=O)sc56)c4)CC3)C2)cs1 (some centres unmarked) [Example 39, ditrifluoroacetate]

>  <targetUnderTest>
Adrenergic β2 (H292 cells) (Homo sapiens, UniProt P07550)

>  <β2 Intrinsic activity>
0.9

$$$$

I. Cc1ccc(C(=O)N2CCOC3(CCN(Cc4cc(CCNC[C@H](O)c5ccc(O)c6[nH]c(=O)sc56)ccc4F)CC3)C2)s1 [Example 29, ditrifluoroacetate]
II. Cc1nc(C(=O)N2CCOC3(CCN(Cc4ccc(CCNC[C@H](O)c5ccc(O)c6[nH]c(=O)ccc56)cc4)CC3)C2)cs1 [Example 17, ditrifluoroacetate]
Exam item: For the two items I and II , which reports the higher β2 Intrinsic activity value? # respond with the chosen item's label
Marked response: I
(I: 1, II: 0.5)

###

targetUnderTest: Adrenergic β2 (H292 cells) (Homo sapiens, UniProt P07550)
Construct: endogenous in cells; host or cells: H292 cells
assaySummary: Assay for Adrenergic β2 Mediated cAMP Production (concentration response, AlphaScreen cAMP detection)
Assay type: cell-based
conditionInfo: fraction relative to the maximum activity determined for formoterol
Where a name gives a salt, the structure may show the parent alone.
readoutType: β2 Intrinsic activity

>  <compound>
Cc1nc(C(=O)N2CCOC3(CCN(Cc4cccc(CCNCC(O)c5ccc(O)c6c5OCC(=O)N6)c4)CC3)C2)cs1 (single isomer, unassigned; isomer 1) [Example 11]

>  <β2 Intrinsic activity>
0.8

$$$$
>  <compound>
O=C(c1csc(-c2ccccc2)n1)N1CCOC2(CCN(CCCCCCCCCNC[C@H](O)c3ccc(O)c4[nH]c(=O)sc34)CC2)C1 [Example 113, formate]

>  <β2 Intrinsic activity>
0.8

$$$$
>  <compound>
Cc1nc(C(=O)N2CCOC3(CCN(Cc4cc(F)cc(CCNC[C@H](O)c5ccc(O)c6[nH]c(=O)ccc56)c4)CC3)C2)cs1 [Example 28, ditrifluoroacetate]

>  <β2 Intrinsic activity>
1

$$$$
>  <compound>
CC(C)(C)CC(=O)N1CCOC2(CCN(Cc3cc(F)cc(CCNC[C@H](O)c4ccc(O)c5[nH]c(=O)sc45)c3)CC2)C1

>  <β2 Intrinsic activity>
1

$$$$
>  <compound>
Cc1nc(C(=O)N2CCOC3(CCN(Cc4cccc(CCOCCC(=O)N(CCNC[C@H](O)c5ccc(O)c6[nH]c(=O)sc56)C5CCCCC5)c4)CC3)C2)cs1 [Example 277, ditrifluoroacetate]

>  <β2 Intrinsic activity>
0.9

$$$$
>  <compound>
O=C(c1ccc(Cl)s1)N1CCOC2(CCN(Cc3cc(F)cc(CCNC[C@H](O)c4ccc(O)c5[nH]c(=O)sc45)c3)CC2)C1

>  <β2 Intrinsic activity>
0.9

$$$$
>  <compound>
CC(C)c1cc(C(=O)N2CCOC3(CCN(Cc4cc(CCNC[C@H](O)c5ccc(O)c6[nH]c(=O)sc56)cs4)CC3)C2)cs1 [Example 264, ditrifluoroacetate]

>  <β2 Intrinsic activity>
1

$$$$
>  <compound>
Cc1nc(C(=O)N2CCOC3(CCN(Cc4ccc(CCNC[C@H](O)c5ccc(O)c6[nH]c(=O)ccc56)s4)CC3)C2)cs1 [Example 14, ditrifluoroacetate]

>  <β2 Intrinsic activity>
0.9

$$$$
>  <compound>
O=C(c1nc2ccccc2s1)N1CCOC2(CCN(CCOc3ccc(CNC[C@H](O)c4ccc(O)c5[nH]c(=O)sc45)cc3)CC2)C1 [Example 106, formate]

>  <β2 Intrinsic activity>
0.8

$$$$
>  <compound>
O=C(c1ccc2c(c1)CCO2)N1CCOC2(CCN(Cc3cc(F)cc(CCNC[C@H](O)c4ccc(O)c5[nH]c(=O)sc45)c3)CC2)C1

>  <β2 Intrinsic activity>
0.9

$$$$
>  <compound>
CCCc1nc(C(=O)N2CCOC3(CCN(CCCCCCCCCNC[C@H](O)c4ccc(O)c5[nH]c(=O)sc45)CC3)C2)cs1

>  <β2 Intrinsic activity>
0.8

$$$$
>  <compound>
CCCc1nc(C(=O)N2CCOC3(CCN(Cc4cc(F)cc(CCNC[C@H](O)c5ccc(O)c6[nH]c(=O)sc56)c4)CC3)C2)cs1 [Example 56, ditrifluoroacetate]

>  <β2 Intrinsic activity>
1

$$$$

Data origin: patent US8148373B2
